Biological target: T1, Human DLL3 expressed on cells (HEK293T-hDLL3, NCI-H82, SHP-77, MC38-hDLL3) (human, UniProt Q9NYJ7 27-618)
T1 construct: also called DLL3 endogenously expressed on human cells
T1 sequence: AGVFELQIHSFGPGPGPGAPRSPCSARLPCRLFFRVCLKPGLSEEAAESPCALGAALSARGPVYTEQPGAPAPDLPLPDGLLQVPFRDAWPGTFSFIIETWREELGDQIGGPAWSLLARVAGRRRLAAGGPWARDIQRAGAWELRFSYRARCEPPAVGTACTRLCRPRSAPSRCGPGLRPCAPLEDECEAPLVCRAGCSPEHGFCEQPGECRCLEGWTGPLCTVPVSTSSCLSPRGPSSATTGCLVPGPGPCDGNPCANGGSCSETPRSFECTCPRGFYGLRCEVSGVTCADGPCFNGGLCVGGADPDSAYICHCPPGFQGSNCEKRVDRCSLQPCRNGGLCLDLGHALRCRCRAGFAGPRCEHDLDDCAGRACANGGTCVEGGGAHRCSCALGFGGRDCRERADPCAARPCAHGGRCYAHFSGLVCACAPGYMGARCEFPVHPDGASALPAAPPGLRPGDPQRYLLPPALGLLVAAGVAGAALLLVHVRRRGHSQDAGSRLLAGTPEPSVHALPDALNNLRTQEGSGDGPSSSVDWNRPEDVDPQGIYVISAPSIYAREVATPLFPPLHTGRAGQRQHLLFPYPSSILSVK
Assay: flow cytometry titration on HEK293T-hDLL3 cells, with HSA
Protocol: Cell binding titration assays were performed for selected His-tagged single domain (1 D) and two domain (2D) designed ankyrin repeat proteins to determine binding to human DLL3 expressed on HEK293T-huDLL3 cells in absence and presence of human serum albumin. […] In brief, 1×10⁵ cells/well were resuspended in 100 μl DARPin dilution (500 nM, 1:5 serial diluted) and incubated for 1 h at 4° C. […] Raw fcs files were exported and analyzed using FlowJo software. […]
readoutLabel: pEC50
Numbers only, as −log10 of the molar value.

{"binder": "MAM160 (two domain ankyrin repeat protein, N-terminal His6-TEV tag) (designed binder, also called 2D DARPin) MRGSHHHHHHENLYFQDLGKKLLEAARAGQDDEVRELLKAGADVNAKDYFSHTPLHLAARNGHLKIVEVLLKAGADVNAKDFAGKTPLHLAADAGHLEIVEVLLKAGADVNAQDIFGKTPADIAADAGHEDIAEVLQKAAGSPTPTPTTPTPTPTTPTPTPTGSDLGTKLLSAAADGQDDEVRELLQAGADVNAKDLFGYTPLHLAAWRGHLEIVEVLLEAGADVNAKDAAGLTPLHLAAWFGHLEIVEVLLEAGADVNAQDVQGVTPADLAAKEGHEDIAEVLQQAA", "readoutLabel": "pEC50", "recordedResult": 7.44}

Please find the next binder below.
Input: What does the record list as pEC50 for MAM120 (single domain ankyrin repeat protein, His-tagged) (designed binder, also called 1D DARPin; not shown: His-tag) DLGTKLLSAAADGQDDEVRELLQAGADVNAKDLFGYTPLHLAAWRGHLEIVEVLLEAGADVNAKDAAGLTPLHLAAWFGHLEIVEVLLEAGADVNAQDVQGVTPADLAAKEGHEDIAEVLQQAA ?
Output: 8.10
